Conditions: buffer; pH 7.4; 200.0 µM
Binary call on solubility kinetic: 1 from 20 µg/mL upward, 0 beneath that.

COCCn1cc(C(=S)N2CCCCC2)c2ccccc21
1
CC(CN1CCCCC1)OC(=O)COc1ccc(Cl)cc1.Cl (stereo not given)
1
Cc1cc(C)cc(C(=O)Nc2cccnc2)c1
1
CC(O)CNC12CC3CC(CC(C3)C1)C2 (stereo not given)
1
Cc1ccc2cc3cc(C(=O)NC4CCCCC4)oc3nc2c1
0
CCc1ccc(NC(=O)COc2ccc3c(c2)OCO3)cc1
0
COc1ccc(Cc2c(O)nc(SCC(C)C)[nH]c2=O)cc1
1
COc1ccc(CC(=O)OCC(=O)Nc2cc(Cl)ccc2C)cc1
0
COc1ccc2cc(C(=O)NCc3ccccc3)[nH]c2c1.Cl
0
CCN(CC)C(=O)c1cc2c(=O)n3cccc(C)c3nc2s1
1
Cc1ccccc1N(Cc1cc(=O)[nH]c2ccccc12)C(=O)C(C)C
1
COc1ccc(Cl)cc1N=Cc1c(O)c2ccccc2oc1=O
0
CC1CCC(NC(=O)CC(NC(N)=O)c2ccccc2Cl)CC1 (stereo not given)
1
COc1cccc(CN(C)C(=O)Cc2c[nH]c3ccccc23)c1
1
O=C(NCc1cccnc1)Nc1ccccc1Cl
1
O=C(CNC(=O)c1ccccc1)NCCc1ccc(O)c(O)c1
1
COc1ccc(NC(=O)c2cnc(SC)nc2C)c(OC)c1
1
CCCCCc1ccc(CC(=O)N2CCOCC2)cc1
1
C[C@@H]1CN(Cc2nc(-c3cccs3)no2)C[C@H](C)O1
1
CCOCCn1c(CC)nc2ccccc21
1
Cc1ccc(-c2c[n+](=O)c3c(n2[O-])CCC3)cc1
1
COc1ccc(C(=O)OCC(=O)N2CCN(C(=O)c3ccco3)CC2)cc1OC
1
COc1cc(N)c(Cl)cc1C(=O)OCC(=O)NCC1CCCCC1
0
CC(C)NCc1nnc(-c2ccccc2Cl)o1
1

====

Conditions: buffer; pH 7.4; 200.0 µM
measurement-kind: log10 solubility kinetic (log10 of the value in µg/mL)

COC(=O)c1ccc(NC(=O)NC(=O)Oc2ccccc2)cc1
1.63
CC1CCN(CCn2c(=S)[nH]c3ccccc3c2=O)CC1
1.64
COc1ccc(CNc2ccc([N+](=O)[O-])cn2)cc1
0.48
Cc1cccc(OCCCCn2c(CO)nc3ccccc32)c1
1.50
CSCc1ccc(C(=O)OCc2nc3ccccc3s2)o1
1.12
Cc1nc(NC(=O)c2ccccc2O)sc1C
1.01

====

Below, each entry is listed alongside its reported solubility kinetic.
Settings: buffer; pH 7.4; 200.0 µM
measurement-kind: solubility kinetic (mg/mL)

Cc1ccc(OCC(=O)Nc2ccc(S(=O)(=O)N3CCCC3)cc2)cc1
0.0005
Cc1cccc(Nc2nc(C)nc3c2oc2ccccc23)c1.Cl
0.0011
COc1ccc(NC(=S)NCc2ccc(Cl)cc2)c(OC)c1
0.0283

====

Settings: buffer; pH 7.4; 200.0 µM
measurement-kind: log10 of solubility kinetic (log10 of the value in µg/mL)

CN(C(=O)c1cc(-c2ccccc2)on1)C1CCCCC1
0.99
Cc1ccc(-c2cn(-c3ccccc3F)c(=S)[nH]2)cc1
0.04
CC(OC(=O)c1cccc(Cl)c1)C(=O)NC1CCCCC1C (stereo not given)
0.94
O=C(NCCO)Nc1ccc(Cl)cc1
1.46
COc1cc(CN(C)Cc2cccc3ccccc23)cc([N+](=O)[O-])c1O
1.53
Cc1cc(=O)oc2cc(N3C(=O)CC(Cc4ccccc4)C3=O)ccc12 (stereo not given)
0.92
NS(=O)(=O)c1ccc(CCNC(=O)CCc2ccccc2)cc1
1.67
Cc1cc(C)c(C#N)c(SCC(=O)C2CC2)n1
0.56
COC(=O)NC1c2ccccc2Oc2ccccc21
-0.15
Cc1ccc(Cl)cc1NC(=O)c1ccccn1
0.80

====

Conditions: buffer; pH 7.4; 200.0 µM
Below, each entry is listed alongside its reported log10(solubility kinetic).
measurement-kind: log10(solubility kinetic) (log10 of the value in µg/mL)

Cc1ccc(CNC(=O)C(CC(C)C)OC(=O)c2ccco2)cc1 (stereo unspecified)
1.05
O=c1[nH]c2ccc(S(=O)(=O)NCc3ccccc3)cc2[nH]1
1.35
CCc1ccc(N/C(=N/c2nc(C)cc(C)n2)NC(C)=O)cc1
0.96
Cc1ccc(CCC(=O)Nc2ccc(Cl)cc2)o1
1.38
CCOc1ccc(NC(=O)c2ccc(NC(=O)c3ccc(NC(N)=O)cc3)cc2)cc1
0.30

====

Conditions: buffer; pH 7.4; 200.0 µM
Binary call on solubility kinetic: satisfied from 10 µg/mL upward, not satisfied beneath that.

O=C(CCc1nc(-c2ccccc2Cl)no1)NCC1CCCO1 (centres undefined)
satisfied
COc1ccc(C(=O)NC(C)CCc2ccccc2)c(O)c1 (centres undefined)
satisfied
CSC1=N/C(=C/c2cccnc2)C(=O)N1Cc1ccccc1
not satisfied
COc1ccccc1Oc1nc([N+](=O)[O-])nn1CC(N)=O
satisfied
CN=C1S/C(=C\c2c(OC)cc(OC)cc2OC)C(=O)N1C
not satisfied
Cc1ccc2c(C)c(C(=O)N(C)Cc3nccn3C)oc2c1C
satisfied
OCC(O)CN(c1ccccc1)c1ccccc1 (centres undefined)
satisfied
COc1ccc(C(=O)Nc2cc(C)on2)c(OC)c1
satisfied
CCOC(=O)N1CCN(C(=O)Cc2ccccc2OC)CC1
satisfied
O=[N+]([O-])c1ccc(C(O)CSC(=S)N2CCCCC2)cc1 (centres undefined)
not satisfied
CC(=O)Nc1ccc(S(=O)(=O)Nc2cc(Cl)ccc2N2CCOCC2)cc1
satisfied
Cc1noc(C)c1C(=O)Nc1nccs1
satisfied
COc1cccc(CSc2nc3ccncc3[nH]2)c1
satisfied
Cc1ccc2cc(C#N)c(N3CCN(C(=O)c4ccccc4)CC3)nc2c1
not satisfied
NC(=O)c1ccccc1NC(=O)COC(=O)CSCc1cccc(Cl)c1
satisfied
CCOc1ncccc1C(=O)N(CCC(C)C)c1c(N)n(Cc2ccccc2)c(=O)[nH]c1=O
not satisfied
CCOC(=O)C1=C(C)NC(C)=C(C(=O)OCC)C1c1ccc(C)o1
not satisfied
Cc1cccc(C)c1NC(=S)N1CCCN(C)CC1
satisfied
CC(=O)NC(=O)c1cnn(-c2ccccc2)c1N
satisfied
COc1ccc2[nH]cc(C(=O)C(=O)N3CCCCC3)c2c1
satisfied
COc1ccc(S(=O)(=O)N2CC(=O)Nc3ccccc32)cc1C
satisfied
O=c1[nH]cc(COCC(F)CCl)c(=O)[nH]1 (centres undefined)
satisfied
CCOc1ccc(N/C(C)=C/C(=O)c2ccc3c(c2)OCCO3)cc1
not satisfied
CC1Oc2ccccc2N(CC(=O)Nc2ccccc2F)C1=O (centres undefined)
not satisfied
Cc1cc(C(=O)Nc2cccc3ccccc23)co1
satisfied
O=[N+]([O-])c1ccc(O)c(C(C#Cc2ccccc2)N2CCOCC2)c1 (centres undefined)
satisfied
O=c1oc2ccccc2cc1-c1csc(Nc2ccc(O)cc2)n1
not satisfied
O=C(NCCCN1CCOCC1)C(=O)NCc1ccc(Cl)cc1
satisfied
CCOC(=O)c1ccc(NC(=O)C2CC(O)CN2S(=O)(=O)c2ccc(C)cc2)cc1 (centres undefined)
satisfied
COc1ccc(CCNC2CCc3ccccc3C2)cc1 (centres undefined)
satisfied
CCSc1nnc(NC(=O)C2CSC3(C)CCC(=O)N23)s1 (centres undefined)
satisfied
CC1CCCC(NC(=O)c2cccs2)C1C (centres undefined)
satisfied
COc1ccc(Cl)cc1C(=O)O/N=C(\N)c1ccncc1
satisfied
O=C1CC(N2CCc3ccccc32)C(=O)N1c1ccc(F)cc1 (centres undefined)
satisfied
Nc1nc2ccc(C(=O)NCCOC(=O)C3CCCCC3)cc2s1
satisfied
Cc1ccc(/C=C/C(=O)O)cc1S(=O)(=O)N1CCC(Cc2ccccc2)CC1
satisfied
Cc1cc(Cl)n2c(nc3ccccc32)c1C#N
satisfied
O=C1Nc2ccccc2Nc2ccc([N+](=O)[O-])cc21
not satisfied
COCCCNC(=S)N1CCN(C)CC1
satisfied
Cc1cccc(C)c1NC(=O)CN(C)C(=O)C1CC1C (centres undefined)
satisfied
COc1cc(C(=S)N2CCOCC2)cc(OC)c1O
satisfied
COc1cc(S(=O)(=O)N2CCOCC2)ccc1NC(=O)COC(=O)c1cc(OC)c(OC)c(OC)c1
not satisfied
O=C(O)C1CCC1C(=O)Nc1nc(-c2ccc(Cl)s2)cs1 (centres undefined)
satisfied
Fc1ccc(CNCCc2ccc3c(c2)OCO3)cc1
satisfied
CCOC(=O)c1ccc2[nH]c3c(c2c1)CCCC3O (centres undefined)
satisfied
O=C(/C=C/c1ccc(Cl)cc1)NCCCn1ccnc1
satisfied
CCN(CC)C(=O)c1ccccc1NC(=O)c1ccccc1
satisfied
O=C(Nc1ccccc1)C1C2CCCCC21 (centres undefined)
not satisfied
Cc1ccc(NC(=O)NC2CCCCCCC2)c(C)c1
not satisfied

====

Conditions: buffer; pH 7.4; 200.0 µM
Binary call on solubility kinetic: met from 20 µg/mL upward, not met beneath that.

COc1ccccc1N1CCN(C(=O)c2cc3cc(Cl)ccc3[nH]2)CC1
not met
O=c1[nH]n2cc(-n3cc([N+](=O)[O-])cn3)cnc2c1Br
met
CN1CCN(S(=O)(=O)c2cccc(C(=O)Nc3cccc([N+](=O)[O-])c3)c2)CC1
met
Nc1cn(C2OC(CO)C(O)C2O)c(=O)[nH]c1=O (centres undefined)
met
S=c1[nH]c(-c2cccs2)cn1-c1ccccc1
not met
CCOC(=O)Cc1csc(NC(=O)c2ccc([N+](=O)[O-])cc2[N+](=O)[O-])n1
met
CCN(Cc1ccncc1)Cc1ccc(Br)cc1.O=C(O)C(=O)O
met
Cc1onc(-c2ccccc2Cl)c1C(=O)N1CCC(C(N)=O)CC1
met
Cc1cc(=O)oc2cc(NS(=O)(=O)c3ccccc3)ccc12
not met
Cc1cc(OCCCCCn2ccnc2)cc(C)c1Cl.Cl
met
Cc1ccc(C)c(OC(C)C(=O)Nc2nccs2)c1 (centres undefined)
met
Cc1cscc1NC(=O)/C=C/C(=O)O
met
CCc1ccc2nc(Nc3ncc(C(C)=O)c(C)n3)nc(C)c2c1
not met
CCNc1nc(NCC)nc(N(C#N)C(C)C)n1
met
CCC1Oc2ccccc2N(CC(=O)NCC2CCCO2)C1=O (centres undefined)
met
Cc1cc(O)ccc1NS(=O)(=O)c1ccc2c3c(cccc13)C(=O)N2
met
CCOC(=O)C1CCN(Cc2cc(=O)oc3cc(C)ccc23)CC1
met
Cc1cc(C(=O)COC(=O)C2=COCCO2)c(C)n1-c1ccccc1
not met
COc1cc(C(=O)OCC(=O)N2CCCC2)cc2c1OCCO2
met
O=C(COc1ccc2c(c1)OCO2)Nc1cccc(F)c1
met
COc1ccccc1OCC(=O)Nc1ncc(C)s1
met
CNC(=O)COC(=O)c1ccccc1Nc1ccccc1
not met
c1ccc(CCN2CN=C(Nc3nc4ccccc4s3)NC2)cc1
not met
O=C1Nc2ccc(S(=O)(=O)NCC3CCCO3)c3cccc1c23 (centres undefined)
met
